B1: Histone H1t, residues 44 to 112; numbered along this chain, P22492 (parent)
chain: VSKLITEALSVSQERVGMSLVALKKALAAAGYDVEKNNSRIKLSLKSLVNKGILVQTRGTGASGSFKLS

- Variants of: B1
- protocol-description: abundance fitness (aPCA) (normalised: wild type 0, dead -1); higher = more abundant; growth selection in yeast, the domain comes from the species named
- applied-conditions: Homo sapiens
Returns yes (1) if the recorded abundance fitness is greater than or equal to -0.2, and no (0) otherwise.

[[record]]
variant_code = "K46T"
classification = "no (0)"

[[record]]
variant_code = "K51P"
classification = "no (0)"

[[record]]
variant_code = "K67S"
classification = "yes (1)"

[[record]]
variant_code = "F66T"
classification = "yes (1)"

[[record]]
variant_code = "A26Q"
classification = "no (0)"

[[record]]
variant_code = "V49S"
classification = "no (0)"

[[record]]
variant_code = "A29R"
classification = "yes (1)"

[[record]]
variant_code = "A30V"
classification = "yes (1)"

